System: MDA-MB-231 breast
experiment.description: NCI tumour cell line growth inhibition, 48 h; in the data active means GI50 below about 0.43 µM; inactive means the rest
Tick one outcome: active, inactive

## Task Check the results log: what was the call for C=C(CN1CCN(c2ccc(Cl)cc2F)CC1)c1ccc(C(=O)Nc2ccccc2N)cc1 ?
## Result inactive

## Task Check the results log: what was the call for CCC(CO)Nc1nc2ccc(Cl)cc2c2ccccc12 (configuration not stated) ?
## Result inactive

## Task Check the results log: what was the call for OCc1ccc(N2CCC2c2ccc(F)cc2)cc1Cl (configuration not stated) ?
## Result inactive

## Task Check the results log: what was the call for COc1ccc(-c2nc3sccn3c2/C(N)=N/C(=N)N)cc1OC ?
## Result inactive

## Task Check the results log: what was the call for O=C(/C=C/C12c3ccccc3C(c3ccccc31)C1C(=O)NC(=O)C12)c1ccncc1 (configuration not stated) ?
## Result inactive

## Task Check the results log: what was the call for O=C1C(Cl)=C(Nc2cccc(Cl)c2)C(=O)N1Cc1ccc(Cl)cc1Cl ?
## Result active

## Task Check the results log: what was the call for NC(=O)c1sc(-n2cnc3ccccc32)cc1OCc1ccccc1Br ?
## Result inactive

## Task Check the results log: what was the call for Cc1nc2ccccc2c(N)c1-c1cc(C)c2c(C)nc3ccccc3c2n1 ?
## Result active

## Task Check the results log: what was the call for CCCCCN(CCCCC)CCCNc1c2c(nc3ccc(Cl)cc13)CCCC2 ?
## Result inactive

## Task Check the results log: what was the call for COc1cc(Cc2cnc(/N=C3\C(=O)N(CN4CCN(c5c(F)cc6c(=O)c(C(=O)O)cn(C7CC7)c6c5OC)CC4C)c4ccc(F)cc43)nc2N)cc(OC)c1OC (configuration not stated) ?
## Result inactive

## Task Check the results log: what was the call for COc1cc(-c2nn(-c3ccc(NC(=O)c4ccc(Cl)c(C(F)(F)F)c4)cc3)cc2-c2ccncc2)ccc1Cl ?
## Result inactive

## Task Check the results log: what was the call for NC(=O)c1cccc2cn(-c3ccc([C@@H]4CCCNC4)cc3)nc12 ?
## Result inactive

----------
Test system: A549 NSCLC
experiment.description: NCI tumour cell line growth inhibition, 48 h
Provide the reported TGI of each item.

## Task Enter TGI (test system A549 NSCLC) for C/C(CC(=O)CCC(=O)Nc1cccc(C(F)(F)F)c1)=N\NC(=O)NN
## Result > 100 µM

## Task Enter TGI (test system A549 NSCLC) for Cc1ccc(C(=O)/C(=C/c2ccc([N+](=O)[O-])cc2)SCc2ccc(Cl)cc2)cc1
## Result > 100 µM

## Task Enter TGI (test system A549 NSCLC) for CC12CCC(O)CC1CCC1C2CCC2(C)C(C3=CC(=O)OC3)CCC12O (configuration not stated)
## Result 1.96 µM

## Task Enter TGI (test system A549 NSCLC) for O=C1C=C(Cl)C(=O)C(c2ccc(Cl)cc2)=C1
## Result > 100 µM

## Task Enter TGI (test system A549 NSCLC) for CO[C@H](C(=O)[C@@H](O)[C@@H](C)O)[C@@H]1Cc2cc3cc(O[C@H]4C[C@@H](O[C@H]5C[C@@H](O)[C@H](O)C(C)O5)[C@H](O)C(C)O4)c(C)c(O)c3c(O)c2C(=O)[C@H]1O[C@H]1C[C@@H](O[C@H]2C[C@@H](O[C@H]3C[C@](C)(O)C(=O)C(C)O3)[C@@H](O)C(C)O2)[C@H](O)C(C)O1 (some centres not stated)
## Result > 33.2 µM

## Task Enter TGI (test system A549 NSCLC) for CCCN=C1CCN(Cc2ccccc2)c2ccccc2N1
## Result > 100 µM

## Task Enter TGI (test system A549 NSCLC) for CCOC(=O)Nn1c(C)nnc1-c1ccccc1
## Result > 100 µM

## Task Enter TGI (test system A549 NSCLC) for N#CN=C(N(Cc1ccccc1)Cc1ccccc1)N(Cc1ccccc1)Cc1ccccc1
## Result > 100 µM

## Task Enter TGI (test system A549 NSCLC) for CCC[C@@H](O)C[C@@H]1CCC[C@H](C[C@@H](O)CC)N1C
## Result > 100 µM

## Task Enter TGI (test system A549 NSCLC) for O=CN/C=C/c1cc(O)ccc1O
## Result > 85.4 µM

## Task Enter TGI (test system A549 NSCLC) for Brc1ccc(N=c2nc3ccccn3n3nc(-c4ccccc4)cc23)cc1
## Result > 100 µM

## Task Enter TGI (test system A549 NSCLC) for C[C@]12CC[C@H](O)CC1=CC[C@@H]1C2CC[C@]2(C)C(=O)N(N)C(=O)CC12 (some centres not stated)
## Result > 100 µM

## Task Enter TGI (test system A549 NSCLC) for CN(C)C(=N)c1ccccc1
## Result > 100 µM

## Task Enter TGI (test system A549 NSCLC) for CC[C@@]1(C[C@H]2C[C@@]3(C(=O)OC)c4[nH]c5ccccc5c4CCN3C2=O)COC2(CCCCC2)O1
## Result > 100 µM

## Task Enter TGI (test system A549 NSCLC) for COc1c(C)c(C/C=C(\C)CCCCO[Si](c2ccccc2)(c2ccccc2)C(C)(C)C)c(OC)c(OC)c1OC
## Result 51 µM

## Task Enter TGI (test system A549 NSCLC) for CC1=CC2C(O1)C1C(=O)C=CC(=O)C1=CC2[N+](=O)[O-] (configuration not stated)
## Result 43.5 µM

## Task Enter TGI (test system A549 NSCLC) for Cc1ccc2c(=O)cc(-c3ccc(F)cc3)[nH]c2n1
## Result > 100 µM

## Task Enter TGI (test system A549 NSCLC) for CCCCCN(CCCCC)CC(O)c1cc(C)c2ccc3cc(C(C)C)ccc3c2c1 (configuration not stated)
## Result 5.58 µM

## Task Enter TGI (test system A549 NSCLC) for CC1(C)CCc2c(c3c(c4c(=O)c(O)c(-c5ccc(O)cc5)oc24)OC(C)(C)CC3)O1
## Result > 100 µM

## Task Enter TGI (test system A549 NSCLC) for Clc1cc2nsnc2c(Cl)n1
## Result > 100 µM

## Task Enter TGI (test system A549 NSCLC) for C(/c1ccco1)=c1/nc(-c2ccccc2)n2c1nc1ccccc12
## Result > 100 µM

## Task Enter TGI (test system A549 NSCLC) for O=C1CC(c2ccc3c(c2)OCO3)Nc2ccccc21 (configuration not stated)
## Result 76.6 µM
